- Target desc: SARS-CoV-2 PL^pro (Severe acute respiratory syndrome coronavirus 2, UniProt P0DTD1)
pIC50: −log10 of the molar value.
Measured attribute: pIC50

compound="Sc1ncc2[nH]cnc2n1 [2-MP, 2-mercaptopurine]" target_desc="SARS-CoV-2 PL^pro (Severe acute respiratory syndrome coronavirus 2, UniProt P0DTD1)" measured_attribute=pIC50 result=6.09
